Where do the numbers come from? From paper PMC8512147.

target: Aβ1–42 peptide (Homo sapiens, UniProt P05067); test: Inhibition of Cu^2+-induced Aβ1–42 aggregation, Thioflavin T fluorescence assay; type: biochemical; parameters: Amyloid-β peptide (1–42) was purchased from GeneCust; purchased GeneCust; details: compounds 80 μM, with copper 40 μM; ThT fluorescence; mean of two independent measurements in duplicate; read-out: Inhibition of Aβ1–42 Aggregation (%) Cu-Induced Aβ Aggr.
Sequence (P05067 672-713): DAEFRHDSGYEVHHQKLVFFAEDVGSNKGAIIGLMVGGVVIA
observation.type: inhibition at 80 µM (%)

{"columns": ["molecular.string", "tested.on", "observation.type", "measured"],
 "data": [
  ["COc1cc(/C=C/C(=O)NOCc2ccc(Cl)cc2Cl)ccc1O", "Aβ1–42 peptide (Homo sapiens, UniProt P05067)", "inhibition at 80 µM", 77],
  ["COc1cc(/C=C/C(=O)NOCc2cccc(Cl)c2)ccc1O", "Aβ1–42 peptide (Homo sapiens, UniProt P05067)", "inhibition at 80 µM", 76.1],
  ["COc1cc(/C=C/C(=O)NOCc2ccccc2OC)ccc1O", "Aβ1–42 peptide (Homo sapiens, UniProt P05067)", "inhibition at 80 µM", 79.6],
  ["COc1cccc(CONC(=O)/C=C/c2ccc(O)c(OC)c2)c1", "Aβ1–42 peptide (Homo sapiens, UniProt P05067)", "inhibition at 80 µM", 69.5],
  ["COc1cc(/C=C/C(=O)NOCc2ccccc2C(F)(F)F)ccc1O", "Aβ1–42 peptide (Homo sapiens, UniProt P05067)", "inhibition at 80 µM", 68.8]
]}
